B1: CPEB3 Ribozyme (parent)
chain: GGGGGCCACAGCAGAAGCGUUCACGUCGCGGCCCCUGUCAGAUUCUGGUGAAUCUGCGAAUUCUGCUGU

Variants of: B1
Experiment: self-cleavage, relative activity (ratio to wild type); higher = more cleavage; co-transcriptional

mutation-key: G14A G30A
self-cleavage: 0.235

mutation-key: G19A G30C
self-cleavage: 0.166

mutation-key: A52U U62G
self-cleavage: 0.82

mutation-key: C6A A51G
self-cleavage: 0.604

mutation-key: A23U U43C
self-cleavage: 0.931

mutation-key: U20G G25A
self-cleavage: 0.129

mutation-key: A10U G50C
self-cleavage: 1

mutation-key: C24U G50A
self-cleavage: 0.838

mutation-key: C32G U49A
self-cleavage: 0.658

mutation-key: A42C C66U
self-cleavage: 0.96

mutation-key: G19C U36G
self-cleavage: 0.141
